# Tested on: Human embryonic lung cell cultures
# ASSAY TEXT: Cytotoxicity
# Format: cell-based
A collection of molecules and their measured Minimum cytotoxic concentration

Use these answered entries as a reference point.
{"MOLECULE": "O=C(N/N=C1\\C(=O)Nc2ccc([N+](=O)[O-])cc21)N/N=C1\\C(=O)Nc2ccc([N+](=O)[O-])cc21 [6d]", "Minimum cytotoxic concentration": "≥100 µM"}
{"MOLECULE": "O=c1[nH]c(=O)n([C@H]2C[C@H](O)[C@@H](CO)O2)cc1/C=C/Br [Brivudin, reference compound]", "Minimum cytotoxic concentration": ">300 µM"}
{"MOLECULE": "Nc1nc(O)c2ncn(COC(CO)CO)c2n1 [Ganciclovir, reference compound]", "Minimum cytotoxic concentration": ">350 µM"}

# next molecule below
**Query** # query: Minimum cytotoxic concentration | item Cc1ccc2c(c1)/C(=N/NC(=O)N/N=C1\C(=O)Nc3ccc(C)cc31)C(=O)N2 [6c] | system: Human embryonic lung cell cultures
**Result** >100 µM

The reported measurements were obtained from paper PMC7080202.
